# system: rCB2 (Rattus norvegicus)
# Sequence (Q9QZN9 whole entry): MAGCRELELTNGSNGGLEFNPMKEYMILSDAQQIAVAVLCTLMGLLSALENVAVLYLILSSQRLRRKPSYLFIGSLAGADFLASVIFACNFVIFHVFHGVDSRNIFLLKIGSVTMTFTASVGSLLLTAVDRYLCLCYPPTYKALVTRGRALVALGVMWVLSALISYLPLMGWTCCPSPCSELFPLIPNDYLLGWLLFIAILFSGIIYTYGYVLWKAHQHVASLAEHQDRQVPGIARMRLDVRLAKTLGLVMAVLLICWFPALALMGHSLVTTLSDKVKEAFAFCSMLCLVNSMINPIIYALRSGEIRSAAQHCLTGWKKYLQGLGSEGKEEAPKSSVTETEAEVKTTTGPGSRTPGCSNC
# assay: cAMP assay, rCB2 in Table 7, agonist/inverse agonist
# Format: cell-based
# measurement-setup: intracellular cAMP; + agonist, − inverse agonist
# Description: Receptor mediated responses were determined by measuring changes in intracellular cAMP using LANCE cAMP detection kit (cat #AD0264, PerkinElmer, Wellesley, Mass.) based on time-resolved fluorescence resonance energy transfer (TR-FRET). Changes in cAMP were determined in cells pre-incubated with IBMX (isobutyl methylxanthine) and prestimulated with NKH-477 (a water soluble forskolin derivative, cat #1603, Tocris, Ellisville, Mo.) to increase basal cAMP levels as detailed below. […]
observable: rCB2 EC50 class

Cn1cc(-c2cc3c(n(CC4CCC4)c2=O)CCCC3)cn1 [Compound 26] :: +A
O=c1c(-c2ccc(C(F)(F)F)cc2)cc2c(n1CC1CCC1)CCN(S(=O)(=O)c1cccc(F)c1)C2 [Compound 57] :: −B
CC(=O)N1CCc2c(cc(-c3cccnc3)c(=O)n2CC2CCC2)C1 [Compound 46] :: +B
CCS(=O)(=O)N1CCc2c(cc(-c3cccc(Cl)c3)c(=O)n2CC2CC2)C1 [Compound 49] :: +B

----------
# system: rCB2 (Rattus norvegicus)
# assay: cAMP assay, rCB2 in Table 7, agonist/inverse agonist
# Assay type: cell-based
# measurement-setup: intracellular cAMP; + agonist, − inverse agonist
observable: rCB2 EC50 class

In the examples that follow, each entry is paired with its recorded rCB2 EC50 class.
O=c1c(-c2ccccc2F)cc2c(n1CC1CCC1)CCCC2 :: +B
CS(=O)(=O)N1CCc2c(cc(-c3ccccc3F)c(=O)n2CC2CCC2)C1 :: +A
O=c1c(-c2ccccc2)cc2c(n1CC1CCC1)CCCC2 :: +A
O=c1c(-c2cccnc2)cc2c(n1CC1CCC1)CCNC2 :: +B

Report rCB2 EC50 class for O=c1c(-c2cccs2)cc2c(n1CC1CCC1)CCCC2 please. +C

Please report the recorded rCB2 EC50 class for O=c1c(-c2ccc(C(F)(F)F)cc2)cc2c(n1CC1CCC1)CCN(S(=O)(=O)c1ccccc1)C2 . −C

Entry O=C(c1ccno1)N1CCc2c(cc(-c3ccc(C(F)(F)F)cc3)c(=O)n2CC2CCC2)C1 : reported rCB2 EC50 class = ? −C

Return reported rCB2 EC50 class; argument: O=c1c(Cc2ccccc2)cc2c(n1CC1CCC1)CCCC2 +B

Requested field: rCB2 EC50 class. Item: CC(C)(C)OC(=O)N1CCc2c(cc(-c3cccc(Cl)c3)c(=O)n2CC2CCC2)C1 −B

Returns the measured rCB2 EC50 class for the input compound. Input: COc1cccc(-c2cc3c(n(CC4CCC4)c2=O)CCN(C(C)=O)C3)c1 −C

# lookup: rCB2 EC50 class of O=c1c(-c2ccc(Cl)cc2)cc2c(n1CC1CCC1)CCCC2 +B

Find the recorded rCB2 EC50 class belonging to CC(C)(C)OC(=O)N1CCc2c(cc(-c3ccc(C(F)(F)F)cc3)c(=O)n2CC2CCC2)C1 and report it. −C

# get_value(readout='rCB2 EC50 class', item= CC(C)CS(=O)(=O)N1CCc2c(cc(-c3cccc(Cl)c3)c(=O)n2CC2CC2)C1 ) −B

Look up rCB2 EC50 class: CC(=O)N1CCc2c(cc(-c3cccc(Cl)c3)c(=O)n2CC2CCC2)C1 +A

Any idea what rCB2 EC50 class was measured for CS(=O)(=O)N1CCc2c(cc(Cc3ccccc3F)c(=O)n2CC2CCC2)C1 ? +A

Which rCB2 EC50 class value is on record for O=c1c(-c2ccoc2)cc2c(n1CC1CCC1)CCCC2 ? +B

Give the measured rCB2 EC50 class of CS(=O)(=O)N1CCc2c(cc(-c3cccc(Cl)c3)c(=O)n2CC2CCC2)C1 . +A

What value of rCB2 EC50 class has been recorded for this entry: O=c1c(-c2ccc(C(F)(F)F)cc2)cc2c(n1CC1CCC1)CCNC2 +C

Quick check: rCB2 EC50 class of O=c1c(-c2cccc(F)c2)cc2c(n1CC1CC1)CCCC2 ? +C

Requested field: rCB2 EC50 class. Item: O=c1c(-c2ccc(C(F)(F)F)cc2)cc2c(n1CC1CCC1)CCCC2 +A

Value lookup for rCB2 EC50 class; key = O=c1c(-c2ccc(C(F)(F)F)cc2)cc2c(n1CC1CCCCC1)CCCC2 −B

Recorded rCB2 EC50 class for O=c1c(-c2cccc(Cl)c2)cc2c(n1CC1CCC1)CCCC2 , please? +A

For CC(C)(C)OC(=O)N1CCc2c(cc(-c3cccnc3)c(=O)n2CC2CCC2)C1 , what is its reported rCB2 EC50 class? −C

Where do the numbers come from? From patent US20080161340A1.
